# System: P. aeruginosa PAO1
# Format: cell-based, Pseudomonas aeruginosa
# Conditions Used: rifampicin in combination with the UTBLP
Non-standard residues stand in square brackets, D forms with d. Residues, ends and D or L forms follow the SMILES beside them. *: point of attachment. Lys(Me3) = C[N+](C)(C)CCCC[C@H](N)C(=O)O; Lys(Me2) = CN(C)CCCC[C@H](N)C(=O)O; Lys(Me) = CNCCCC[C@H](N)C(=O)O; Octanoyl = CCCCCCCC(=O)*
Exercise: for every item that follows, state its recorded MICantibiotic [MICcombo].
// units = µg/mL; emit number, no label

Fill in the blank: the reported MICantibiotic [MICcombo] of CCCCCCCC(=O)NCCCC[C@H](NC(=O)CCCCCCC)C(=O)N[C@@H](CCCC[N+](C)(C)C)C(=O)N[C@@H](CCCC[N+](C)(C)C)C(=O)N[C@@H](CCCC[N+](C)(C)C)C(=O)N[C@@H](CCCC[N+](C)(C)C)C(N)=O [UTBLP 8] (Octanoyl-K(Octanoyl)[Lys(Me3)][Lys(Me3)][Lys(Me3)][Lys(Me3)]-NH2) is ____.
16

Fill in the blank: the reported MICantibiotic [MICcombo] of CCCCCCCC(=O)N[C@@H](CCCCNC)C(=O)NCCCN(CCCNC(=O)[C@H](CCCCNC)NC(=O)CCCCCCC)CC(=O)N[C@@H](CCCCNC)C(N)=O [UTBLP 2] is ____.
8

Fill in the blank: the reported MICantibiotic [MICcombo] of CCCCCCCC(=O)NCCCC[C@H](NC(=O)CCCCCCC)C(=O)N[C@@H](CCCCN)C(=O)N[C@@H](CCCCN)C(=O)N[C@@H](CCCCN)C(=O)N[C@@H](CCCCN)C(N)=O [UTBLP 5] (Octanoyl-K(Octanoyl)KKKK-NH2) is ____.
0.5

Fill in the blank: the reported MICantibiotic [MICcombo] of CCCCCCCC(=O)N[C@@H](CCCCN(C)C)C(=O)NCCCN(CCCNC(=O)[C@H](CCCCN(C)C)NC(=O)CCCCCCC)CC(=O)N[C@@H](CCCCN(C)C)C(N)=O [UTBLP 3] is ____.
16

Fill in the blank: the reported MICantibiotic [MICcombo] of CCCCCCCC(=O)N[C@@H](CCCCN)C(=O)NCCCN(CCCNC(=O)[C@H](CCCCN)NC(=O)CCCCCCC)CC(=O)N[C@@H](CCCCN)C(N)=O [UTBLP 1] is ____.
2

Fill in the blank: the reported MICantibiotic [MICcombo] of CCCCCCCC(=O)NCCCC[C@H](NC(=O)CCCCCCC)C(=O)N[C@@H](CCCCN(C)C)C(=O)N[C@@H](CCCCN(C)C)C(=O)N[C@@H](CCCCN(C)C)C(=O)N[C@@H](CCCCN(C)C)C(N)=O [UTBLP 7] (Octanoyl-K(Octanoyl)[Lys(Me2)][Lys(Me2)][Lys(Me2)][Lys(Me2)]-NH2) is ____.
4

Fill in the blank: the reported MICantibiotic [MICcombo] of CCCCCCCC(=O)NCCCC[C@H](NC(=O)CCCCCCC)C(=O)N[C@@H](CCCCNC)C(=O)N[C@@H](CCCCNC)C(=O)N[C@@H](CCCCNC)C(=O)N[C@@H](CCCCNC)C(N)=O [UTBLP 6] (Octanoyl-K(Octanoyl)[Lys(Me)][Lys(Me)][Lys(Me)][Lys(Me)]-NH2) is ____.
1
